Target: Glutaminase kidney isoform, mitochondrial (Homo sapiens)
Sequence (O94925 whole entry): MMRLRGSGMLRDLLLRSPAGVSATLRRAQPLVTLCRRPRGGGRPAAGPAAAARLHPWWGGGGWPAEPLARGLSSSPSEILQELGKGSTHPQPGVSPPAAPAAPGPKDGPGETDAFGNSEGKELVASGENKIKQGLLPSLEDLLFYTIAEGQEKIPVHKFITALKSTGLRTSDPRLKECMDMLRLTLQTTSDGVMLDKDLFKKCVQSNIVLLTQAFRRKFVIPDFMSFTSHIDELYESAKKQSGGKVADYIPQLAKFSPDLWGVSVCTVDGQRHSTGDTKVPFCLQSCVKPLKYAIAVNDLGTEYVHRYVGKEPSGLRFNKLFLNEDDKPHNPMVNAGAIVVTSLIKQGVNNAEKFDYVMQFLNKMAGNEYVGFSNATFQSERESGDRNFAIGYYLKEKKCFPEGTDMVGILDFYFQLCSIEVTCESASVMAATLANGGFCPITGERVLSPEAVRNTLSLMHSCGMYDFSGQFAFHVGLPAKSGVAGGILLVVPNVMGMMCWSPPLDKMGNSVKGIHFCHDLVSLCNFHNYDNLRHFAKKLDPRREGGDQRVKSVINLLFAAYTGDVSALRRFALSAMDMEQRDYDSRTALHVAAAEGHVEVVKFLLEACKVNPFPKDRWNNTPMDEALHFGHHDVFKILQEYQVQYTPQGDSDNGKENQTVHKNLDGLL
Experiment: Negative allosteric modulator activity at human wildtype KGA incubated for 5 hrs in presence of GDH and NADP by EZMTT assay
MEASURED PARAMETER: IC50

## Task Any idea what IC50 was measured for `Cc1nn(CC[Se][Se]CCn2nc(C)c3ccccc32)c2ccccc12` ?
## Result 200 nM

## Task Any idea what IC50 was measured for `O=c1[nH]n(CC[Se][Se]CCn2[nH]c(=O)c3ccccc3c2=O)c(=O)c2ccccc12` ?
## Result 1000 nM

## Task Any idea what IC50 was measured for `Cc1nn(CCCCCCn2nc(C)c(Cl)c2C)c(C)c1Cl` ?
## Result > 10000 nM

## Task Any idea what IC50 was measured for `O=[N+]([O-])c1ccc2c(cnn2CC[Se][Se]CCn2ncc3cc([N+](=O)[O-])ccc32)c1` ?
## Result 400 nM

## Task Any idea what IC50 was measured for `c1ccc(CC[Se][Se]CCc2ccccc2)cc1` ?
## Result > 10000 nM

## Task Any idea what IC50 was measured for `Cc1nn(CCSSCCn2nc(C)c(Cl)c2C)c(C)c1Cl` ?
## Result > 10000 nM

* * *

test system: HepG2; test: Antiproliferative activity against human HepG2 cells assessed as cell growth inhibition incubated for 5 days by EZMTT assay; type: functional, cell-based; settings: HepG2, 120 h
MEASURED PARAMETER: IC50 (nM)
Dear colleague, please return just the value in nM, with no unit written.

## Task Any idea what IC50 was measured for `O=C1c2ccccc2C(=O)N1CC[Se][Se]CCN1C(=O)c2ccccc2C1=O` ?
## Result 1900

* * *

system: CAKI-1; test: Antiproliferative activity against human CAKI-1 cells assessed as cell growth inhibition incubated for 5 days by EZMTT assay; type: functional, cell-based; details: CAKI-1, 120 h
MEASURED PARAMETER: IC50
# include the unit after the value

## Task Any idea what IC50 was measured for `O=C1c2ccccc2C(=O)N1CC[Se][Se]CCN1C(=O)c2ccccc2C1=O` ?
## Result 3.3 µM
